Ref: the RNAGym collection of RNA variant scans (doi:10.1093/nar/gkz1192)

B1: CPEB3 Ribozyme (parent)
chain: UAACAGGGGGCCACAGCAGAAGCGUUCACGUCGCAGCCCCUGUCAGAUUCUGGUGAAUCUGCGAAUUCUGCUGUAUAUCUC

variants of: B1; assay: self-cleavage, relative activity (ratio to wild type); higher = more cleavage; in vitro, sequencing
property-measured: self-cleavage

| mutation-name | self-cleavage |
| --- | --- |
| U26A A35U | 0.38 |
| C37A U54G | 0.2 |
| U54A U69C | 0.63 |
| U25G U58A | 0.14 |

Looking up U26C C39U , I see its self-cleavage listed as 0.61

Looking up A13U A35C , I see its self-cleavage listed as 0.69

Looking up G7C U25C , I see its self-cleavage listed as 0.27

Looking up C39A C68G , I see its self-cleavage listed as 0.17

Looking up G10A A35U , I see its self-cleavage listed as 0.11
